target_desc: human GLP-1R (Homo sapiens (Human), UniProt P43220, L260F)
Sequence (P43220 24-463 L260F): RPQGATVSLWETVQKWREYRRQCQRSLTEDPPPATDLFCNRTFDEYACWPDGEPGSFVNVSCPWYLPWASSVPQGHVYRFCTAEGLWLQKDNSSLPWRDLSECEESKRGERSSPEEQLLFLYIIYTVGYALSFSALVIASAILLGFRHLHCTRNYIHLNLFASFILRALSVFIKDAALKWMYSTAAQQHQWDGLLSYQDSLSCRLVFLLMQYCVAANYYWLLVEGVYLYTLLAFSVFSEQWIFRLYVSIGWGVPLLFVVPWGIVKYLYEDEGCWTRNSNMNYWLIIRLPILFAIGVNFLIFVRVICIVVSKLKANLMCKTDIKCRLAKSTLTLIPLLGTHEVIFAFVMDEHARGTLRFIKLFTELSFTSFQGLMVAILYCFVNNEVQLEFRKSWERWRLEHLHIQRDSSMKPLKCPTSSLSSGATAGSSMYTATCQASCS
test_details: CHO GLP-1R Clone C6 - Assay 2 (HTRF cAMP agonist assay, low receptor density)
protocol_conditions: Assay 2 EC50 (nM), CHO GLP-1R Clone C6 (low receptor density), cAMP HTRF; geometric mean
measured_attribute: EC50 (nM)
Give bare numbers, in nM.

Take a look at these entries with their results.
[
  {
    "molecule": "CC1(c2ccc(Cl)cc2F)Oc2cccc(C3CCN(Cc4nc5ccc(C(=O)O)nc5n4Cc4ncco4)CC3)c2O1 (stereo not shown) [Example 13]",
    "readout_unit": "nM",
    "EC50": 38
  },
  {
    "molecule": "COCCn1c(C2CC23CCN(c2cccc4c2OC(C)(c2ccc(Cl)cc2F)O4)CC3)nc2ccc(C(=O)O)cc21 (single isomer, unassigned) [Example 16]",
    "readout_unit": "nM",
    "EC50": 120
  }
]

For the 8 molecules below, give their EC50 values.
1. C[C@]1(c2ccc(Cl)cc2F)Oc2cccc(C3CCN(Cc4nc5ccc(C(=O)O)cc5n4C[C@@H]4CCO4)CC3)c2O1 [Example 7]
2. CC1(c2ccc(C#N)cc2F)Oc2cccc(C3CCN(Cc4nc5ccc(C(=O)O)cc5n4C[C@@H]4CCO4)CC3)c2O1 (single isomer, unassigned) [Example 8]
3. CC1(c2ccc(Cl)cc2F)Oc2c(F)ccc(C3CCN(Cc4nc5ccc(C(=O)O)cc5n4C[C@@H]4CCO4)CC3)c2O1 (single isomer, unassigned) [Example 96]
4. CC1(c2ccc(C#N)cc2F)Oc2cccc(C3CCN(Cc4nc5ccc(C(=O)O)cc5n4C[C@@H]4CCO4)CC3)c2O1 (single isomer, unassigned) [Example 9]
5. CN(C)CCn1c(CN2CCC(c3cccc4c3OC(C)(c3ccc(Cl)cc3F)O4)CC2)nc2ccc(C(=O)O)cc21 (stereo not shown) [Example 12]
6. C[C@@]1(c2ccc(Cl)cc2F)Oc2cccc(C3CCN(Cc4nc5ccc(C(=O)O)cc5n4C[C@@H]4CCO4)CC3)c2O1 [Example 6]
7. COCCn1c(CN2CCN(c3cccc4c3OC(c3ccc(Cl)cc3F)O4)CC2)nc2ccc(C(=O)O)cc21 (single isomer, unassigned) [Example 2]
8. CC1(c2ccc(Cl)cc2F)Oc2c(F)ccc(C3CCN(Cc4nc5ccc(C(=O)O)cc5n4C[C@@H]4CCO4)CC3)c2O1 (single isomer, unassigned) [Example 97]

3.1
3.6
11
1600
690
2400
260
140

// EC50 lookup, molecule = COCCn1c(CN2CCC(c3cccc4c3OC(C)(c3ccc(F)c(F)c3)O4)CC2)nc2ccc(C(=O)O)cc21 (stereo not shown) [Example 41] , result: 2000

----------
target_desc: human GLP-1R (Homo sapiens, UniProt P43220, G168S)
Sequence (P43220 24-463 G168S limits assumed): as the sequence (P43220 24-463 L260F) above, with G145S, F237L counted along it
test_details: CHO GLP-1R Clone H6 - Assay 1 (HTRF cAMP agonist assay)
protocol_conditions: CHO GLP-1R Clone H6, cAMP HTRF; geometric mean
measured_attribute: EC50 (nM)
Numbers only, in nM.

[
  {
    "compound": "CC1(c2ccc(C#N)cc2F)Oc2cccc(C3CCN(Cc4nc5ccc(C(=O)O)cc5n4Cc4ncco4)CC3)c2O1 (centres unmarked) [Example 98]",
    "EC50 [nM]": 50
  },
  {
    "compound": "CC1(c2ccc(Cl)cc2F)Oc2cccc(C3CCN(Cc4nc5ccc(C(=O)O)cc5n4C[C@@H]4CCCO4)CC3)c2O1 (some centres unmarked) [Example 79]",
    "EC50 [nM]": 1.4
  },
  {
    "compound": "CC1(c2ccc(Cl)cc2F)Oc2cccc(C3CCN(Cc4nc5ccc(C(=O)O)cc5n4CCn4ccnc4)CC3)c2O1 (centres unmarked) [Example 50]",
    "EC50 [nM]": 12
  }
]

For the 6 compounds below, give their EC50 values.
1. COCCn1c(CN2CCC(c3cccc4c3OC(C)(c3ccccn3)O4)CC2)nc2ccc(C(=O)O)cc21 (centres unmarked) [Example 89]
2. CC1(c2ccc(Cl)cc2F)Oc2cccc(C3CCN(Cc4nc5ccc(C(=O)O)cc5n4CCO)CC3)c2O1 (centres unmarked) [Example 75]
3. COCCn1c(CN2CCC(c3cccc4c3OC(C)(c3cccnc3)O4)CC2)nc2ccc(C(=O)O)cc21 (centres unmarked) [Example 11]
4. CC1(c2ccc(Cl)cc2F)Oc2cccc(C3CCN(Cc4nc5ccc(C(=O)O)nc5n4Cc4cnco4)CC3)c2O1 (centres unmarked) [Example 81]
5. CC1(c2ccc(Cl)cc2F)Oc2cccc(C3CCN(Cc4nc5ccc(C(=O)O)cc5n4CCN4CCCC4=O)CC3)c2O1 (centres unmarked) [Example 48]
6. CC1(c2ccc(Cl)cc2F)Oc2cccc(C3CCN(Cc4nc5ccc(C(=O)O)cc5n4Cc4cnco4)CC3)c2O1 (centres unmarked) [Example 69]

[130, 65, 290, 29, 14, 10]

For the 5 compounds below, give their EC50 values.
1. CCn1ccnc1Cn1c(CN2CCC(c3cccc4c3OC(C)(c3ccc(Cl)cc3F)O4)CC2)nc2ccc(C(=O)O)cc21 (centres unmarked) [Example 51]
2. COCCn1c(CN2CCC(c3cccc4c3OC(C)(c3ccccc3C)O4)CC2)nc2ccc(C(=O)O)cc21 (centres unmarked) [Example 88]
3. CC1(c2ccc(Cl)cc2F)Oc2cccc(C3CCN(Cc4nc5ccc(C(=O)O)cc5n4Cc4ncco4)CC3)c2O1 (centres unmarked) [Example 80]
4. COCCn1c(CN2CCC(c3cccc4c3OC(C)(c3cccc(F)c3)O4)CC2)nc2ccc(C(=O)O)cc21 (centres unmarked) [Example 31]
5. COCCn1c(CN2CCC(c3cccc4c3OC(C)(c3ccc(C)nc3)O4)CC2)nc2ccc(C(=O)O)cc21 (centres unmarked) [Example 42]

1: 19; 2: 17; 3: 1.1; 4: 190; 5: 120

----------
target_desc: human GLP-1R (Homo sapiens, UniProt P43220, G168S)
test_details: CHO GLP-1R Clone H6 - Assay 1 (HTRF cAMP agonist assay)
protocol_conditions: CHO GLP-1R Clone H6, cAMP HTRF; geometric mean
Kindly supply the reported pEC50 values for the records listed here.
Give bare numbers, as −log10 of the molar value.

Take a look at these entries with their results.
[
  {
    "compound": "COCCn1c(CN2CCC(c3cccc4c3OC(C)(c3cccc(C(F)(F)F)c3)O4)CC2)nc2ccc(C(=O)O)cc21 (stereo not shown) [Example 28]",
    "pEC50": 6.32
  },
  {
    "compound": "CN(C)CCn1c(CN2CCC(c3cccc4c3OC(C)(c3ccc(Cl)cc3F)O4)CC2)nc2ccc(C(=O)O)cc21 (stereo not shown) [Example 12]",
    "pEC50": 7.54
  },
  {
    "compound": "COCCn1c(CN2CCC(c3cccc4c3OC(C)(c3ccc(F)c(F)c3)O4)CC2)nc2ccc(C(=O)O)cc21 (stereo not shown) [Example 41]",
    "pEC50": 7.04
  },
  {
    "compound": "CCn1nncc1Cn1c(CN2CCC(c3cccc4c3OC(C)(c3ccc(Cl)cc3F)O4)CC2)nc2ccc(C(=O)O)cc21 (stereo not shown) [Example 76]",
    "pEC50": 9.11
  },
  {
    "compound": "CC1(c2ccc(Cl)cc2F)Oc2cccc(C3CCN(Cc4nc5ccc(C(=O)O)cc5n4CCc4ncc[nH]4)CC3)c2O1 (stereo not shown) [Example 74]",
    "pEC50": 6.34
  }
]

For the 2 compounds below, give their pEC50 values.
1. CC1(c2ccc(Cl)cc2F)Oc2cccc(C3CCN(Cc4nc5ccc(C(=O)O)nc5n4Cc4ncco4)CC3)c2O1 (stereo not shown) [Example 13]
2. Cn1ncnc1Cn1c(CN2CCC(c3cccc4c3OC(C)(c3ccc(Cl)cc3F)O4)CC2)nc2ccc(C(=O)O)cc21 (stereo not shown) [Example 57]

8.35
7.82

----------
target_desc: human GLP-1R (Homo sapiens (Human), UniProt P43220, L260F)
test_details: CHO GLP-1R Clone C6 - Assay 2 (HTRF cAMP agonist assay, low receptor density)
protocol_conditions: read-out: Assay 2 Emax (%), CHO GLP-1R Clone C6 (low receptor density); arithmetic mean, relative to saturating GLP-1 (1 μM)
Kindly supply the reported Emax values for the records listed here.
One number for each entry, in %.

Take a look at these entries with their results.
[
  {
    "compound": "COCCn1c(CN2CCC(c3cccc4c3OC(C)(c3ccc(C)nc3)O4)CC2)nc2ccc(C(=O)O)cc21 (centres unmarked) [Example 42]",
    "Emax (%)": 83
  },
  {
    "compound": "CC1(c2ccc(Cl)cc2F)Oc2cccc(C3CCN(Cc4nc5ccc(C(=O)O)cc5n4Cc4cccnc4)CC3)c2O1 (centres unmarked) [Example 65]",
    "Emax (%)": 99
  },
  {
    "compound": "O=C(O)c1ccc2nc(CN3CCC(c4cccc5c4O[C@@H](c4ccc(Cl)cc4F)O5)CC3)n(C[C@@H]3CCO3)c2c1F [Example 101]",
    "Emax (%)": 74
  }
]

For the 7 compounds below, give their Emax values.
1. COCCn1cnnc1Cn1c(CN2CCC(c3cccc4c3OC(C)(c3ccc(Cl)cc3F)O4)CC2)nc2ccc(C(=O)O)cc21 (centres unmarked) [Example 70]
2. CC1(c2ccc(Cl)cc2F)Oc2cccc(C3CCN(Cc4nc5ccc(C(=O)O)nc5n4Cc4cnco4)CC3)c2O1 (centres unmarked) [Example 81]
3. COCCn1c(CN2CCC(c3cccc4c3OC(C)(c3ccccn3)O4)CC2)nc2ccc(C(=O)O)cc21 (centres unmarked) [Example 89]
4. CC1(c2ccc(C#N)cc2F)Oc2cccc(C3CCN(Cc4nc5ccc(C(=O)O)cc5n4C[C@@H]4CCO4)CC3)c2O1 (single isomer, unassigned) [Example 8]
5. COCCn1c(CN2CCC(c3cccc4c3OC(c3ccc(C#N)cc3F)O4)CC2)nc2ccc(C(=O)O)cc21 (centres unmarked) [Example 27]
6. Cn1cnc(Cn2c(CN3CCC(c4cccc5c4OC(C)(c4ccc(Cl)cc4F)O5)CC3)nc3ccc(C(=O)O)cc32)c1 (centres unmarked) [Example 77]
7. CC1(c2ccc(Cl)cc2F)Oc2cccc(C3CCN(Cc4nc5ccc(C(=O)O)cc5n4CCN4CCCC4=O)CC3)c2O1 (centres unmarked) [Example 48]

100
110
87
91
100
92
73

For the 4 compounds below, give their Emax values.
1. CC1(c2ccc(C#N)cc2F)Oc2cccc(C3CCN(Cc4nc5ccc(C(=O)O)cc5n4Cc4ncco4)CC3)c2O1 (centres unmarked) [Example 98]
2. COCCn1c(CN2CCC(c3cccc4c3OC(C)(c3ccc(OC)cc3Cl)O4)CC2)nc2ccc(C(=O)O)cc21 (centres unmarked) [Example 83]
3. CC1(c2ccc(Cl)cc2F)Oc2cccc(C3CCN(Cc4nc5ccc(C(=O)O)cc5n4Cc4cocn4)CC3)c2O1 (centres unmarked) [Example 58]
4. CC1(c2ccc(Cl)cc2F)Oc2cccc(C3CCN(Cc4nc5ccc(C(=O)O)cc5n4CCN4CCOC4=O)CC3)c2O1 (centres unmarked) [Example 46]

95
88
88
96
